- EXPERIMENTAL PROTOCOL: in vitro
- CONDITIONS: human, hela cells, % viability
Please respond with criterion met when measured viability at 28.5 h, 10 µM is strictly beneath 90%, and with criterion not met in all other cases.

O=C(NCC1Cc2ccccc2O1)c1cccc(NC(=O)c2ccco2)c1 (centres unmarked) [CBK298302] : criterion met
Cc1nc([N+](=O)[O-])c(N2CCN(C)CC2)n1Cc1ccccc1 [CBK261421] : criterion not met
CCN(C(=O)Cn1cccc(OC)c1=O)C1CCOC(C)(C)C1 (centres unmarked) [CBK306879] : criterion met
COc1ccc([C@]23CN(C)C[C@H]2CCN(C(=O)Nc2cccc(Br)c2)C3)cc1OC [CBK075106T] : criterion not met

====

- EXPERIMENTAL PROTOCOL: in vitro
- CONDITIONS: human, hela cells, % viability
METRIC: viability at 28.5 h, 10 µM (%)

Cc1ccc(-c2noc(CSc3nnc(CCc4ccccc4)n3-c3ccccc3)n2)cc1 [CBK268493] : 93.1
CCCNc1nccnc1-c1cc(C)c(O)c(C)c1 [CBK037210] : 87.6
O=CNCCCc1nc2ccccc2n1CCc1ccccc1 [CBK269393] : 89.5
Cc1nn(C(C)C)c(C)c1CN(CCCN(C)C)Cc1ccco1 [CBK282978] : 86.8
Cc1cccn2c(CN3CCCC(O)C3)c(C(=O)N3CCOCC3)nc12 (stereo not drawn) [CBK306545] : 72.5
CSc1nnc(CC2CCN(C(=O)c3cc(C)on3)CC2)n1C [CBK307481] : 108
Cc1nc(NS(=O)(=O)c2ccc(Oc3ccccc3)cc2)sc1C(=O)O [CBK045566] : 107
CC(C)(C)OC(=O)N1CCN(c2ccc(Cl)nn2)CC1 [CBK113381] : 96.2
COCCN1CCN(C(=O)NCCc2c(C)[nH]c3ccc(Cl)cc23)CC1 [CBK307637] : 85
Cc1cc(CNCc2c(C(C)C)nn(C)c2N(C)C)no1 [CBK304855] : 97
CC(=O)c1ccc(-c2nc(-c3occc3C=O)cnc2N)cc1 [CBK064081] : 89.9
COc1ccccc1N1CCN(C(=O)NCC2CCCCC2)CC1 [CBK155588] : 98.3
COc1ccc(S(=O)(=O)Nc2ccc3oc4c(c3c2)CC(C)CC4)cc1[N+](=O)[O-] (stereo not drawn) [CBK266131] : 94.3
CC1(C)C[C@H](NC(=O)C2CC2)[C@@]2(CCC(=O)N3CCCC3)CC[C@](C)(O)C[C@@H]12 [CBK289044] : 88.1
Cc1ccc(NC(=O)COC(=O)CCc2c[nH]c(O)n2)cc1 [CBK265562] : 89.9
Cc1cc(OC(C)C(=O)Nc2nnc[nH]2)ccc1Cl (stereo not drawn) [CBK269731] : 87
COc1ccccc1Nc1nc(N)c2ccccc2n1 [CBK266665C] : 90.4
OCCC1CCCCN1c1nccnc1-c1ccsc1 (stereo not drawn) [CBK037358] : 105
O=C(NC(c1ccccc1)c1ccsc1)C1CCN(CCc2ccccc2)CC1 (stereo not drawn) [CBK148433] : 98.1
CCNC(=O)N1CC2(CCN(CCOc3ccccc3)CC2)c2ccccc21 [CBK122701] : 93.9
c1ccc(C(Oc2nccnc2-c2ccncc2)c2ccccc2)cc1 [CBK106728] : 89.1
COc1cc(/C=C(\C#N)c2nc3ccccc3n2C)cc([N+](=O)[O-])c1O [CBK263893] : 91.4
CCCCOc1ccc(-c2nnn(CC(=O)Nc3ccccc3)n2)cc1 [CBK070609] : 90.2
COCC(=O)N1CCC(c2nc(C)n3c(C)csc23)CC1 [CBK285198] : 96.7
O=C(CCS(=O)(=O)Cc1ccccc1)n1nnc2ccccc21 [CBK268324] : 99.4
COc1cc(C(O)c2cc3c(cc2CO)OCO3)cc(OC)c1OC (stereo not drawn) [CBK200098] : 100
OCC(O)/C=N/Nc1nc(Nc2ccccc2)nc(N2CCCCC2)n1 (stereo not drawn) [CBK262042] : 107
O=C(NC(=S)Nc1ccc(OCc2ccccc2)cc1)c1cccnc1 [CBK266224] : 97.8
CN(CC1(C)COC1)C(=O)Cc1cccc2cccnc12 [CBK281963] : 91.7
CC(=O)NCC1CCCN(Cc2c[nH]nc2-c2c(F)cccc2F)C1 (stereo not drawn) [CBK306382] : 99.6
COc1cccc(C(=O)NCCC(=O)N2CCc3sccc3C2)c1 [CBK305376] : 108
c1ccc(-c2nc(C3CC3)n3ccccc23)cc1 [CBK149257] : 94.1
CC1(c2ccccc2)CC(C)(C)N(C(=O)C2CCCO2)c2ccccc21 (stereo not drawn) [CBK059175] : 97.5
CCN1CCCC1CN(Cc1ccccn1)Cc1ccco1 (stereo not drawn) [CBK283161] : 91.3
CCn1c(SCc2cccnc2)nc2c(c1=O)SC(C)C2 (stereo not drawn) [CBK287643] : 87.7
O=C(NCc1cccnc1)c1ccccc1NS(=O)(=O)c1ccc(F)cc1 [CBK269754] : 70.8
COc1cc(-c2cnc3[nH]c(=O)n([C@@H](CO)C(C)C)c3n2)cc(OC)c1OC [CBK064471] : 105
Cc1cc(NC(=O)CN2CCN(c3ccc(F)cc3)CC2)nc2c1c(=O)oc1ccccc12 [CBK291232] : 88.8
Clc1cnc2nc(NCC3CCCCC3)sc2c1 [CBK067087] : 87.5

====

- EXPERIMENTAL PROTOCOL: in vitro
- CONDITIONS: human, hela cells, % viability
Measured viability at 28.5 h, 10 µM, listed per entry for reference.
METRIC: viability at 28.5 h, 10 µM (%)

CC(=O)N1CCN(C(=O)C[C@@H]2C[C@@H](C(C)C)[C@H](CC#N)C=C2C)CC1 : 103
COc1ccc(NS(=O)(=O)c2ccc(C)cc2)cn1 : 85.8
CCn1c2ccccc2c2cc(CN(C)Cc3ccccc3)ccc21 : 94.1
Cc1cc2occ(CC(=O)NCC(C)n3cncn3)c2cc1C (centres unmarked) : 101
Cc1sc(NC(=O)C2C3C=CC(C3)C2C(=O)O)c(C(N)=O)c1C (centres unmarked) : 87.6
Cc1cc(NC(=O)c2ccc(Br)cc2)nc2c1c(=O)oc1ccccc12 : 102
O=C(CO)N1CC2(CCN(Cc3ccc(Cl)c(Cl)c3)CC2)c2ccccc21 : 89.5
COc1cc(CN2CCC(C(=O)NC(c3ccc(Cl)cc3)c3ccsc3)CC2)cc(OC)c1 (centres unmarked) : 95.3
C/C(CCS(=O)(=O)c1ccc(Br)cc1)=N\NC(N)=S : 102
OC1(c2ccc(F)cc2)CC2CCC(C1)N2Cc1ccccn1 (centres unmarked) : 108
CCc1cccc2c(CN3CCc4nc(C)[nH]c(=O)c4C3)c[nH]c12 : 94.6
Cc1ccc(Cl)c(NC(=O)NCCN2CCN(c3ccccc3[N+](=O)[O-])CC2)c1 : 94.5
CC(C)C(=O)Nc1cc2cccnc2c(-c2ccsc2)n1 : 100
Cn1cncc1CN(Cc1ccccc1)C1CC(C)(C)NC(C)(C)C1 : 89.1
O=C(O)CCCCN1C(=O)c2ccccc2S1(=O)=O : 84.8
O=C(Nc1cccc(Br)c1)/C(=C\c1cccnc1)NC(=O)c1ccccc1 : 85.8
O=C(CSc1nnc(-c2cccnc2)n1-c1ccccc1)Nc1ccc(Br)cc1 : 100
COCOc1ccc(-c2nc(-c3ccco3)cnc2N)cc1 : 82.9
COc1cc(CN2CCNCC2)c2ccn(S(=O)(=O)c3ccccc3Cl)c2c1 [CBK144483T] : 91.9
Fc1ccccc1CCOc1cncc(Cl)n1 : 86
Cc1ccc(C(=O)N2CCC(O)(c3cccnc3F)CC2)o1 : 94.4
CCOC(=O)c1c(CN(C)C)n(-c2ccccc2)c2cc(Br)c(OC)cc12 : 117
CN1CCN(c2cc(N3CCN(S(=O)(=O)c4ccc5ccccc5c4)CC3)ccc2[N+](=O)[O-])CC1 : 97.6
CN(CCc1cn[nH]c1)C(=O)CCc1ccc(Cl)cc1 : 91.1
O=C(c1ccc(OC(F)(F)F)cc1)N1CCC2(CCN(C(=O)c3ccoc3)C2)C1 (centres unmarked) : 92.8
Cc1ccsc1CN(CCCO)Cc1cn(C)nc1C : 95.7
Cc1cc(C)n(-c2ccc(CN3C(=O)NC4(CCCC4)C3=O)cc2)n1 : 88.3
O=C(Nc1ccccc1-c1ccccc1)C1CN(S(=O)(=O)c2ccccc2)CCN1S(=O)(=O)c1ccccc1 (centres unmarked) : 91.1
CS(=O)(=O)N(CC(=O)Nc1ccc(S(=O)(=O)N2CCCCCC2)cc1)c1ccccc1F : 92.9
CS(=O)(=O)N[C@H]1CO[C@H]2[C@@H]1OC[C@H]2OC(=O)Nc1cccc2ccccc12 : 89
CC(C)Nc1cncc(OCCN2CCNCC2)n1 : 93.6
Fc1cccc(F)c1OCCOc1nc(N2CCNCC2)ccc1C(F)(F)F [CBK003977A] : 87
O=C(CCc1ccccc1)N/N=C/c1cc2c(cc1[N+](=O)[O-])OCO2 : 111
COc1ccc2c(c1)OC1(CCN(CC(O)c3ccc(-c4ccccc4)cc3)CC1)CC2O (centres unmarked) : 91.2
CC(=O)N(C)[C@H]1CC[C@]2(CC1)CNC(=O)c1cc(C)ccc1O2 : 101
CCN1CC2(CCN(CCCN(C)C)CC2)c2ccccc21 : 84.5
COC(=O)[C@H]1CN(C(=O)c2cnn(C)c2C)C[C@@H]1c1ccc(F)cc1 : 84.5
CC1CN(CCOc2ccccc2C=O)CC(C)O1 (centres unmarked) [CBK269687C] : 101

From: paper PMC12040169
